targetEntity: recombinant RSV complex (Human respiratory syncytial virus A)
Sequence (P28887 whole entry): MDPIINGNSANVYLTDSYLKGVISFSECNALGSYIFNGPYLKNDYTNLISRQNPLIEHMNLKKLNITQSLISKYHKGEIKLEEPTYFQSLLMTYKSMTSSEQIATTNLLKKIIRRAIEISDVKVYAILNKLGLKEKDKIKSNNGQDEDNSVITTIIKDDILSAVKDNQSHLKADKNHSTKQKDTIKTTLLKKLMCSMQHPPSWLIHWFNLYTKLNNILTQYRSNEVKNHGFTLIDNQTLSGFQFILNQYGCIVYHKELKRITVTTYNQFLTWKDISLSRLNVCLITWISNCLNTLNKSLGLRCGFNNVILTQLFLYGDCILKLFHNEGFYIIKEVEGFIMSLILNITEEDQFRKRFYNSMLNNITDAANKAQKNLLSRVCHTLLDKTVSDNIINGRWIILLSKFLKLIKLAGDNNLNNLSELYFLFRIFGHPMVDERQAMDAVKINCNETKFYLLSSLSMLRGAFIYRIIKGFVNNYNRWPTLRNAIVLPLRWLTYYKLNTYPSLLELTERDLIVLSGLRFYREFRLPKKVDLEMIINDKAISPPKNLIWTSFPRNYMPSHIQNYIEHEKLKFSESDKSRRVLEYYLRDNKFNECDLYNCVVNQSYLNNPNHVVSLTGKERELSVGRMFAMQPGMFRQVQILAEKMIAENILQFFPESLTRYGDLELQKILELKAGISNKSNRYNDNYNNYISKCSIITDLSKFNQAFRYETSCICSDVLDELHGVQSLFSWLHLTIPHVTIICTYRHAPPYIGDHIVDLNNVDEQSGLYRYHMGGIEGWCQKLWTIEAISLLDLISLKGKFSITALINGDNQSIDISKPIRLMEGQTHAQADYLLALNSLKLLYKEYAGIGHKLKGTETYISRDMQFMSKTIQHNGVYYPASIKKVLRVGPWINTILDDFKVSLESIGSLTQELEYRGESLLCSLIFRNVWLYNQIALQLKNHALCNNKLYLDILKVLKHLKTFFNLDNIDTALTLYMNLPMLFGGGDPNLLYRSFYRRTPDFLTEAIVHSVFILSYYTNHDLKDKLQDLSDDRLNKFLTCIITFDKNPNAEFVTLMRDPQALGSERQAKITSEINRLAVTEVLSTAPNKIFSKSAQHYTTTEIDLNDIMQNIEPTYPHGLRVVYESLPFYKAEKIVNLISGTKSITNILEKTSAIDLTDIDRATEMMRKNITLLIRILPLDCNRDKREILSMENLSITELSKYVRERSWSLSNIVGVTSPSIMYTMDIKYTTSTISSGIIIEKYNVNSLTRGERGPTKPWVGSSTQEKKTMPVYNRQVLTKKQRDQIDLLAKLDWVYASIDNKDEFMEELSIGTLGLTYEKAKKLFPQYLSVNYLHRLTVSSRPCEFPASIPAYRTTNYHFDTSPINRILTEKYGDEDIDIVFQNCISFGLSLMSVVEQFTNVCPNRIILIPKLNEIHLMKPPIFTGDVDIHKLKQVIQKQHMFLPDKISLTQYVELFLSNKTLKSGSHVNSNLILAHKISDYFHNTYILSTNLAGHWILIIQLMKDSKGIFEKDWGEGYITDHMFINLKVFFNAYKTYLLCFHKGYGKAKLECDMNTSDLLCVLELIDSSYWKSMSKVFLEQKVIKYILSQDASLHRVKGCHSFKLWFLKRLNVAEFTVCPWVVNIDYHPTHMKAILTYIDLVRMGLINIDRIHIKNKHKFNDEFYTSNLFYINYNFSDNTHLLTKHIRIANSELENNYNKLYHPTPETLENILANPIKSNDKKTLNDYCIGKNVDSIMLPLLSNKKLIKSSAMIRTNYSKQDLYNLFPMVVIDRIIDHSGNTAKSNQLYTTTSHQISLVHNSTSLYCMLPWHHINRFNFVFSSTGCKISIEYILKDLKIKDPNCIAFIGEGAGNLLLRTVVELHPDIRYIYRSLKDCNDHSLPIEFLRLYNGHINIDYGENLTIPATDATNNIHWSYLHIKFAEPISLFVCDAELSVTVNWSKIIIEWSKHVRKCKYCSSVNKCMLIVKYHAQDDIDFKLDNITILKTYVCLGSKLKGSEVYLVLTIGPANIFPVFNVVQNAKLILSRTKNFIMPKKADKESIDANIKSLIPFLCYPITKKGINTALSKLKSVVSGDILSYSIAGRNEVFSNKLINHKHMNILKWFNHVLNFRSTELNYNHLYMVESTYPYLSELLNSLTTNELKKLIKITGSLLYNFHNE
Sequence (P03421 whole entry, further chain): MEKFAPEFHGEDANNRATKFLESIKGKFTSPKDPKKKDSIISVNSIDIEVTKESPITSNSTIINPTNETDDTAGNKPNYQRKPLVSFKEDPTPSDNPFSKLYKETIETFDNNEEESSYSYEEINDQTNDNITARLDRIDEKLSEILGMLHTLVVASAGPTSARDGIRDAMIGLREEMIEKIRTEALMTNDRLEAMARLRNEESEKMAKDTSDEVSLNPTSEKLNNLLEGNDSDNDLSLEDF
procedureText: RSV Polymerase Inhibition Assay
Type: biochemical
pIC50: −log10 of the molar value.
Listed here are compounds together with their documented pIC50.
measurementName: pIC50

INSERT INTO measurements (compound, targetentity, recordedvalue) VALUES
  ('COc1cc(C(=O)NCC(O)(c2cc(C(C)(C)NC(C)=N)cc(-c3ccc(F)c(Cl)c3)n2)C(F)(F)F)ccc1OC1CC1 (centres unmarked) [Compound 579]', 'recombinant RSV complex (Human respiratory syncytial virus A)', '> 6.00'),
  ('CCNC(C)(C)c1cc(-c2ccc(F)cc2)nc(C(O)(CNC(=O)c2ccc(OC3CC3)c(OC)c2)C(F)(F)F)c1 (centres unmarked) [Compound 388]', 'recombinant RSV complex (Human respiratory syncytial virus A)', '> 6.00'),
  ('COc1cc(C(=O)NCC(O)(c2ccc(OC)c(-c3ccc(F)c(Cl)c3)n2)C(F)F)ccc1OCC(N)=O (centres unmarked) [Compound 442]', 'recombinant RSV complex (Human respiratory syncytial virus A)', '> 6.00'),
  ('COc1cc(C(=O)NCC(O)(c2ccc(OC)c(-c3ccc(F)c(Cl)c3)n2)C(F)(F)F)ccc1OC1CCN(C)C1=O (centres unmarked) [Compound 350]', 'recombinant RSV complex (Human respiratory syncytial virus A)', '> 5.00'),
  ('COc1cc(C(=O)NCC(C)(O)c2csc(-c3ccc(F)c(Cl)c3)n2)ccc1OCCO (centres unmarked) [Compound 441]', 'recombinant RSV complex (Human respiratory syncytial virus A)', '> 4.00'),
  ('COc1cc(C(=O)NCC(O)(c2ccc(OC)c(-c3ccc(F)c(Cl)c3)n2)C(F)(F)F)ccc1OC1CCCC1 (centres unmarked) [Compound 236]', 'recombinant RSV complex (Human respiratory syncytial virus A)', '> 6.00'),
  ('COc1cc(C(=O)NCC(O)(c2cc(C(C)(C)N)cc(-c3ccc(F)c(Cl)c3)n2)C(F)(F)F)ccc1OC1CC1 (single isomer, unassigned) [Compound 272]', 'recombinant RSV complex (Human respiratory syncytial virus A)', '> 6.00'),
  ('COc1cc(C(=O)NCC(F)(c2ccc(OC)c(-c3ccc(F)c(Cl)c3)n2)C(F)(F)F)ccc1OC1CCNC1=O (centres unmarked) [Compound 344]', 'recombinant RSV complex (Human respiratory syncytial virus A)', '> 6.00'),
  ('COc1cc(C(=O)NCC(O)(c2ccc(OC)c(-c3ccc(F)c(Cl)c3)n2)C(F)(F)F)ccc1OC1(C)CC1 (centres unmarked) [Compound 249]', 'recombinant RSV complex (Human respiratory syncytial virus A)', '> 6.00'),
  ('COc1cc(C(=O)NCC(O)(c2ccc(OC)c(-c3ccc(F)c(Cl)c3)n2)C(C)(C)C)ccc1OCCF (centres unmarked) [Compound 313]', 'recombinant RSV complex (Human respiratory syncytial virus A)', '> 5.00'),
  ('COc1cc(C(=O)NCC(O)(c2ccc(OC)c(-c3ccc(F)c(Cl)c3)n2)C(F)(F)F)ccc1OCC(N)=O (single isomer, unassigned) [Compound 238]', 'recombinant RSV complex (Human respiratory syncytial virus A)', '> 6.00'),
  ('COc1cc(C(=O)NCC(O)(c2cc(C(C)(C)O)cc(-c3ccc(F)c(Cl)c3)n2)C(F)(F)F)ccc1OC1CC1 (centres unmarked) [Compound 386]', 'recombinant RSV complex (Human respiratory syncytial virus A)', '> 6.00'),
  ('COc1cc(C(=O)NCC(O)(Cn2nccn2)c2ccc(OC)c(-c3ccc(F)c(Cl)c3)n2)ccc1OCCO (centres unmarked) [Compound 193]', 'recombinant RSV complex (Human respiratory syncytial virus A)', '> 6.00'),
  ('COc1cc(C(=O)NCC(O)(CN2CCCC2)c2ccc(OC)c(-c3ccc(F)c(Cl)c3)n2)ccc1OCCO (centres unmarked) [Compound 187]', 'recombinant RSV complex (Human respiratory syncytial virus A)', '> 5.00');
